Molecular target: HCV NS5B RdRp genotype 1b (Hepatitis C virus genotype 1b, UniProt Q9WMX2)
Construct: The protein was expressed with an 18 amino acid C-terminal truncation to enhance the solubility; made in house; host or cells: E. coli BL21(DE3), pET21a vector
Sequence (Q9WMX2 2420-2992): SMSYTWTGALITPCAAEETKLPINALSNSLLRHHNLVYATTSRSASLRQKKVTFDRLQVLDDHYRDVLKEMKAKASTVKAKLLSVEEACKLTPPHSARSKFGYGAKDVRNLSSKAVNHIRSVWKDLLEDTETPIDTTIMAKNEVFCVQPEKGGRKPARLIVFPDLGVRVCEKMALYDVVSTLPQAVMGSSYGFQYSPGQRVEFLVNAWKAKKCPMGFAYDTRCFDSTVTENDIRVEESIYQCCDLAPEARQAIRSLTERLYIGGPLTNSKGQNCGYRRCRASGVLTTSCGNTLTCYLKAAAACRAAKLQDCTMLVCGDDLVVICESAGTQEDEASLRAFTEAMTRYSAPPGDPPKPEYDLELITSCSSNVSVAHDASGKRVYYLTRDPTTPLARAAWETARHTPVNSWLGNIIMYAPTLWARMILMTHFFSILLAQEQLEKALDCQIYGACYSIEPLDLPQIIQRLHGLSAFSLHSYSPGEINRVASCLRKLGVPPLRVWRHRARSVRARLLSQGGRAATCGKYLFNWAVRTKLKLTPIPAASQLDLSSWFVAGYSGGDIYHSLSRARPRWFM
Experiment: Standard HCV NS5B RdRp enzyme assay
Type: biochemical
Settings: Table 1a; HCV NS5B RdRp genotype 1b; read-out: IC50
pIC50: −log10 of the molar value.
Test readout: pIC50

| Compound | Result |
| --- | --- |
| CNC(=O)c1c(-c2ccc(F)cc2)oc2ccc(-c3cccc(C(=O)NC(C)(C)CO)c3)cc12 | > 6.60 |
| CNC(=O)c1c(-c2ccc(F)cc2)oc2ccc(-c3cccc(C(=O)NCCc4cccs4)c3)cc12 | 6.00 to 6.60 |
| CNC(=O)c1c(-c2ccc(F)cc2)oc2ccc(-c3cccc(C(=O)N(C)CCN(C)C)c3)cc12 | < 5.00 |
| CNC(=O)c1c(-c2ccc(F)cc2)oc2ccc(-c3cccc(C(=O)NCc4ccncc4)c3)cc12 | > 6.60 |
| CCn1nccc1NC(=O)c1cccc(-c2ccc3oc(-c4ccc(F)cc4)c(C(=O)NC)c3c2)c1 | 6.00 to 6.60 |
| CNC(=O)c1c(-c2ccc(F)cc2)oc2cc([N+](=O)[O-])c(-c3cccc(C(=O)NC4(c5ccccc5)CC4)c3)cc12 | > 6.60 |
| CNC(=O)c1c(-c2ccc(F)cc2)oc2cc(N(CCO)S(C)(=O)=O)c(-c3cccc(C(=O)NC(C)(C)c4ccccc4)c3)cc12 | > 6.60 |
| CNC(=O)c1c(-c2ccc(F)cc2)oc2ccc(-c3cccc(C(=O)N4CCCC4c4ccccc4)c3)cc12 (centres unmarked) | 6.00 to 6.60 |
